# tgt: T1, human GITR (human, UniProt Q9Y5U5 26-241)
# T1 construct: also called TNFRSF18; Glucocorticoid-induced TNFR-related gene
# T1 sequence: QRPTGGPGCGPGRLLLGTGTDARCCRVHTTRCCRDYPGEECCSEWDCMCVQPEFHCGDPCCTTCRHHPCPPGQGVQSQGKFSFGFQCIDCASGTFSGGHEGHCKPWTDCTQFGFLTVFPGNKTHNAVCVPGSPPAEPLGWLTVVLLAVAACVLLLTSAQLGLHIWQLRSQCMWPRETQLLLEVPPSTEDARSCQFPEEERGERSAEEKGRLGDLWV
# assayProcedure: flow cytometry, human T cell binding
experimentalReadout: EC50 (mg/L)

INSERT INTO measurements (binder, value) VALUES
  ('5H7v2 (antibody, human IgG1, kappa, V domains shown, Engineered variant; also called Ab26; SS-13807) VH: QVQLQESGPGLVKPSETLSLTCTVSGGSISSGGYFWSWIRQPPGKGLEWIGYIYYSGTTYYNPSLKSRVTISIDTSKNQFSLKLSSVTAADTAVYYCARDLFYYDTSGPRGFDPWGQGTLVTVSS VL: EIVLTQSPGTLSLSPGERATLSCRASQTVSSNYLAWYQQKPGQAPRLLIYGSSTRATGIPDRFSGSGSGTDFTLTISRLEPEDFAVYYCQQYDSSPWTFGQGTKVEIKR', 0.164),
  ('9H6v3 (antibody, human IgG1, kappa, V domains shown, Engineered variant; also called Ab46; SS-13806) VH: QVQLVESGGGVVQPGRSLRLSCVASGFTFSSYGMHWIRQAPGKGLEWVAVIWYEGSNKYYAESVKGRFTISRDNSKNTLYLQMNSLRAEDTAVYYCARGGRLGKDYYSGMDVWGQGTTVTVSS VL: DIQMTQSPSSLSASVGDRVTITCRASQGIRNDLGWYQQKPGKAPKRLIYATSSLQSGVPSRFSGSGSGTEFTLTISSLQPEDFATYYCLQHNTYPWTFGQGTKVEIKR', 0.026);

Value source: patent US20150064204A1
